- protocol.notes: activity coefficient (dimensionless); of the first substance listed, at infinite dilution; xn = mol fraction of the nth substance listed
- experimental.setup: 318.15 K; 101 kPa; Liquid; Chromatography; x1 = 0
Flag rule - activity coefficient less than 10 flags Y; the remaining entries get N.

• CCCCCCCC [octane] + CCCC[n+]1cccc(C)c1.O=S(=O)([O-])C(F)(F)F = N
• CCCCCCCCC [nonane] + CCCC[n+]1cccc(C)c1.O=S(=O)([O-])C(F)(F)F = N
• CCCCO [butan-1-ol] + CCCC[n+]1cccc(C)c1.O=S(=O)([O-])C(F)(F)F = Y
• c1ccsc1 [thiophene] + CCCC[n+]1cccc(C)c1.O=S(=O)([O-])C(F)(F)F = Y
• C1CCCCCCC1 [cyclooctane] + CCCC[n+]1cccc(C)c1.O=S(=O)([O-])C(F)(F)F = N
• C#CCCCCCC [1-octyne] + CCCC[n+]1cccc(C)c1.O=S(=O)([O-])C(F)(F)F = Y
• C=CCCCCCC [oct-1-ene] + CCCC[n+]1cccc(C)c1.O=S(=O)([O-])C(F)(F)F = N
